// endpoint IC50 / system EGFR (human)
Supply the numeric figure in µM, leaving out any unit text.

These solved cases illustrate the format of a correct answer.
compound_structure_string=COc1cc(/C=C(\C#N)C(N)=O)cc(CSCc2ccccc2)c1O value_units=µM value_reported=12.5
compound_structure_string=COc1cc(/C=C(\C#N)C(N)=O)cc(CSc2ccccc2NC(C)=O)c1O value_units=µM value_reported=9
compound_structure_string=COc1cc(/C=C(\C#N)C(N)=O)cc(CSc2ccc(O)cc2)c1O value_units=µM value_reported=2
compound_structure_string=COc1cc(/C=C(\C#N)C(=O)c2ccc(O)c(O)c2)cc(CSCc2ccccc2)c1O value_units=µM value_reported=2

# input for lookup
Entry `Cc1cc(C=C(C#N)C#N)cc(O)c1O` ; assay system EGFR (human); IC50 recorded at 13
